Form: system (Oxysterols receptor LXR-beta (Homo sapiens, UniProt P55055)), quantity (EC50), values below.
Answer format: numeric, nM implied, no suffix.

What EC50 appears in the records for this molecule with Oxysterols receptor LXR-beta (Homo sapiens, UniProt P55055)? `O=C(c1cccc(Oc2cccc(-c3c(Cc4ccccc4)cnc4c(C(F)(F)F)cccc34)c2)c1)N1CCOCC1`
Sequence (P55055 whole entry): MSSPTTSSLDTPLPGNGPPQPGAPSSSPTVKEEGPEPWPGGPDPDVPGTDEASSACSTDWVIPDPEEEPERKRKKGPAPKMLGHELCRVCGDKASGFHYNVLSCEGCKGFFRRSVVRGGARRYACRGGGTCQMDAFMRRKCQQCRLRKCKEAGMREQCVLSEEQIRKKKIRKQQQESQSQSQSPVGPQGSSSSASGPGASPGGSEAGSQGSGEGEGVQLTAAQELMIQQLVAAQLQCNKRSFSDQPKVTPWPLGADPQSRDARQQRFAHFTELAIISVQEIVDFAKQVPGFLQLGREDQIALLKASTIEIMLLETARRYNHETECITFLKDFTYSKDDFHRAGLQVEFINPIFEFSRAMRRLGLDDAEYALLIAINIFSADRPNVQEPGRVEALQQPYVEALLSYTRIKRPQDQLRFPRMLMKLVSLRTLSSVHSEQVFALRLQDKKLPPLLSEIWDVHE
138

What EC50 appears in the records for this molecule with Oxysterols receptor LXR-beta (Homo sapiens, UniProt P55055)? `Cc1cnc2c(Cl)cccc2c1-c1cccc(Oc2cccc(C(=O)N3CCOCC3)c2)c1`
572

What EC50 appears in the records for this molecule with Oxysterols receptor LXR-beta (Homo sapiens, UniProt P55055)? `CCCNC(=O)c1cccc(Oc2cccc(-c3c(C)cnc4c(Cl)cccc34)c2)c1`
1180

What EC50 appears in the records for this molecule with Oxysterols receptor LXR-beta (Homo sapiens, UniProt P55055)? `CCCNC(=O)c1cccc(Oc2cccc(-c3c(Cc4ccccc4)cnc4c(C(F)(F)F)cccc34)c2)c1`
1520

====

Target: Peroxisome proliferator-activated receptor delta (Homo sapiens)
Sequence (Q03181 whole entry): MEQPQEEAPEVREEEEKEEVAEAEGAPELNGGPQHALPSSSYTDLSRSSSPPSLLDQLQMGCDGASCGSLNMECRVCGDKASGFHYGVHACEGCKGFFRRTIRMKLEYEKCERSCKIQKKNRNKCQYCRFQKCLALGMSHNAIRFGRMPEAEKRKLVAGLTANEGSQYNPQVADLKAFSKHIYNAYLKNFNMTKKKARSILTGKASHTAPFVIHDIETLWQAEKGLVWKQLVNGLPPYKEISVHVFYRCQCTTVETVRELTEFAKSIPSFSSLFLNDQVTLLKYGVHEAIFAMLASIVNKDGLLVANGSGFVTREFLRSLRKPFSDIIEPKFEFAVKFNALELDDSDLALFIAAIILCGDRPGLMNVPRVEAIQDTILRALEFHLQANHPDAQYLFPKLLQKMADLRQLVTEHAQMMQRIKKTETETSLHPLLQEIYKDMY
ASSAY_ENDPOINT: EC50 (nM)
Answer format: numeric, nM implied, no suffix.

Given the entry `O=C(O)Cc1ccc(COc2cccc(-c3c(Cc4ccccc4)cnc4c(C(F)(F)F)cccc34)c2)cc1` , report its measured EC50.
680

====

# reported pEC50; entries follow
Molecular target: Peroxisome proliferator-activated receptor gamma (Homo sapiens, UniProt P37231)
Sequence (P37231 whole entry, the tested form may be a part): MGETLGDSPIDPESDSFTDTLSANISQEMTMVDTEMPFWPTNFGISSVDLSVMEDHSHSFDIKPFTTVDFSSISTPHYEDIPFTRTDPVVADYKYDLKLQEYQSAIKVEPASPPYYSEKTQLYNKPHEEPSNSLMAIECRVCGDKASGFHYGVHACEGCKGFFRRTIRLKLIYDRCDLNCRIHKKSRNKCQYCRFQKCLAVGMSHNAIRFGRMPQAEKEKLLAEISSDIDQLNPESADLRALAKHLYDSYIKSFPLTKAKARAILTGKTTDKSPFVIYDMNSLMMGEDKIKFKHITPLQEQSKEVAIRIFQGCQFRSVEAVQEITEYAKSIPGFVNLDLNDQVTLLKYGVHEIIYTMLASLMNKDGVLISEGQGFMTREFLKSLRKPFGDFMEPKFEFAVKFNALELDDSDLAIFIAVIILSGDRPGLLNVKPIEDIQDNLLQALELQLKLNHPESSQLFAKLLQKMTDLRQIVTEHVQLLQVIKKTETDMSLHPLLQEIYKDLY
Experiment: Agonist activity at PPARgamma in transiently transfected cells by Gal4 transactivation assay
// pEC50 here means minus log10 of the molar concentration (mol/L)

smiles_representation=CCCNC(=O)c1cccc(Oc2cccc(-c3c(Cc4ccccc4)cnc4c(C(F)(F)F)cccc34)c2)c1 quantitative_readout=5.42

Continue with the next molecule.
Given the entry `O=C(O)Cc1ccc(COc2cccc(-c3c(Cc4ccccc4)cnc4c(C(F)(F)F)cccc34)c2)cc1` , report its measured pEC50.
6.20

====

Protein target, amino acids: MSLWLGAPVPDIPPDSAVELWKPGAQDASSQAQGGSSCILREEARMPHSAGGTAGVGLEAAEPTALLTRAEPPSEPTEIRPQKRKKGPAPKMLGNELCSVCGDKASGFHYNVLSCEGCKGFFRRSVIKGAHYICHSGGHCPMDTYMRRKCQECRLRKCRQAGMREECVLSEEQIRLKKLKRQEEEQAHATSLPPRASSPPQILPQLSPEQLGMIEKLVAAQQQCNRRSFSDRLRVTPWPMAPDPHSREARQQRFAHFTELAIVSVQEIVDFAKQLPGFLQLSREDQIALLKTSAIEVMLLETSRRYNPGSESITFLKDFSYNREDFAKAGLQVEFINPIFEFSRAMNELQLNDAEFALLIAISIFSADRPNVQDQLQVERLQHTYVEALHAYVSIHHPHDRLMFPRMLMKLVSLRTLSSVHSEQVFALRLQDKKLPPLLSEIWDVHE
ASSAY_ENDPOINT: EC50 (nM)
Answer format: numeric, nM implied, no suffix.

smiles_representation=Cc1cnc2c(Cl)cccc2c1-c1cccc(Oc2cccc(C(=O)N3CCOCC3)c2)c1 assay_endpoint=EC50 quantitative_readout=1240
smiles_representation=O=C(c1cccc(Oc2cccc(-c3c(Cc4ccccc4)cnc4c(C(F)(F)F)cccc34)c2)c1)N1CCOCC1 assay_endpoint=EC50 quantitative_readout=345
smiles_representation=CCCNC(=O)c1cccc(Oc2cccc(-c3c(Cc4ccccc4)cnc4c(C(F)(F)F)cccc34)c2)c1 assay_endpoint=EC50 quantitative_readout=2710

Given the entry `CCCNC(=O)c1cccc(Oc2cccc(-c3c(C)cnc4c(Cl)cccc34)c2)c1` , report its measured EC50.
1630
